- assayed.system: CDK12 (aa686-1082)/Cyclin K complex (Homo sapiens)
- Sequence (Q9NYV4 686-1082): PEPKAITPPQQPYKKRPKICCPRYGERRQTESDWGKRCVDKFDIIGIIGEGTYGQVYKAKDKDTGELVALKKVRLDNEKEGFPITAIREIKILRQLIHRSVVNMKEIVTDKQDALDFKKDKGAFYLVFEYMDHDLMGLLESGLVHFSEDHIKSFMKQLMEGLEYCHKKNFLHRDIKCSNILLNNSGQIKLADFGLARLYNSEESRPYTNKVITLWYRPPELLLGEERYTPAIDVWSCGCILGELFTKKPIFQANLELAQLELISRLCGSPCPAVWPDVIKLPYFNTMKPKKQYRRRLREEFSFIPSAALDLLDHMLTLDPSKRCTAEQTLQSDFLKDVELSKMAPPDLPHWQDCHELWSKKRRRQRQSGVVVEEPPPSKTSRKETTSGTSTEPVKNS
- Sequence (O75909 whole entry partner, the tested form may be a part): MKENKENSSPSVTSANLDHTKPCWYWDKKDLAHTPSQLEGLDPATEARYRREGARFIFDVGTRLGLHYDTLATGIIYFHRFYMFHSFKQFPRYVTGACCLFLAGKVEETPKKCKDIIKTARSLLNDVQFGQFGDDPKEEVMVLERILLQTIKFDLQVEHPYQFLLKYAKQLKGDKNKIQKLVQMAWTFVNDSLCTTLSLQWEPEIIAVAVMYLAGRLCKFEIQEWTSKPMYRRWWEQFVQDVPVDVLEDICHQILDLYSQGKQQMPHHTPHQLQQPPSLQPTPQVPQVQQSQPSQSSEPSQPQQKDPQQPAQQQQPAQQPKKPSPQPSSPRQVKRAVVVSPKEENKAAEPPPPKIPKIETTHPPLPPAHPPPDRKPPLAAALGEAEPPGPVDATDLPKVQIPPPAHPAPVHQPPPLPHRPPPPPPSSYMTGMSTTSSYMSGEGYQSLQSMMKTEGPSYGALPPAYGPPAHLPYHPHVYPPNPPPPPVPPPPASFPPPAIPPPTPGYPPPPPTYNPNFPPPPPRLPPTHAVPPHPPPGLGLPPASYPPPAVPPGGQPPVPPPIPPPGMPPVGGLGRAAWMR
- experiment: CDK12 kinase inhibition assay (Caliper/LabChip EZ Reader)
pIC50: −log10 of the molar value.
result.type: pIC50

Examples with their reported pIC50 follow.
N#Cc1ccc2c(-c3nc(N[C@H]4CCC[C@@H]4N)ncc3C(F)(F)F)c[nH]c2c1 [Compound 101] | < 6.30
CCN[C@H]1CCC[C@@H]1Nc1ncc(C(F)(F)F)c(-c2c[nH]c3nc(-c4c(C)noc4C)ccc23)n1 [Compound 145] | < 6.30

Using the record for C[C@H]1C[C@H](Nc2ncc(C(F)(F)F)c(-c3c[nH]c4cc(C#N)ccc34)n2)CN1 [Compound 104] , state its measured pIC50. < 6.30

* * *

- assayed.system: CDK7/Cyclin H/MAT1 complex (Homo sapiens)
- Sequence (P50613 whole entry): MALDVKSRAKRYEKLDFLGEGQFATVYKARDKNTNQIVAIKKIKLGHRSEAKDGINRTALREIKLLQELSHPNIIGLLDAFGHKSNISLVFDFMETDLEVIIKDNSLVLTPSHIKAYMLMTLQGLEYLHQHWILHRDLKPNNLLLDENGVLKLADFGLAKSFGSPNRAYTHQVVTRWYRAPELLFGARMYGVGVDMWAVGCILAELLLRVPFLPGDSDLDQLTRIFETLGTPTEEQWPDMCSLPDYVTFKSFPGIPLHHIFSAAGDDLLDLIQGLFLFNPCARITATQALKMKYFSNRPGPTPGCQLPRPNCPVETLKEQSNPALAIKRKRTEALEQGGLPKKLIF
- Sequence (P51946 whole entry partner): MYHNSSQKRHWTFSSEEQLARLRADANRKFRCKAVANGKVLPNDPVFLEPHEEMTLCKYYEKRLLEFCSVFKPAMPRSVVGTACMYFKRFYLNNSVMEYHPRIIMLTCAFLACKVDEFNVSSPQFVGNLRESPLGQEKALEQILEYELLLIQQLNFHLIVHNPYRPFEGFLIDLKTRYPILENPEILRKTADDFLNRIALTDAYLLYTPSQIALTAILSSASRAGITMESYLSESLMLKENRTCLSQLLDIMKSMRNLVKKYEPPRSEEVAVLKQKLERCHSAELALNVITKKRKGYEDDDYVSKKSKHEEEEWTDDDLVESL
- Sequence (P51948 whole entry partner): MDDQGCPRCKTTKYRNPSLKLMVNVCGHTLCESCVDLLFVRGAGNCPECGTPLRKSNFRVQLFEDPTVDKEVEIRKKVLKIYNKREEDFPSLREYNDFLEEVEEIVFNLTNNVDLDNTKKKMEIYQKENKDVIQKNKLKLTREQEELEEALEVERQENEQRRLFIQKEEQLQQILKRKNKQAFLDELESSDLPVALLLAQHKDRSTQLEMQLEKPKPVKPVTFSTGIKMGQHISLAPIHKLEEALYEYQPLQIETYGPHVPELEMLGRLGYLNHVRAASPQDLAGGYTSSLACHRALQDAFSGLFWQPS
- experiment: CDK7 kinase inhibition assay (Caliper/LabChip EZ Reader)
result.type: IC50

Cc1noc(C)c1-c1ccc2c(-c3nc(N[C@H]4CCC[C@@H]4N4CCC4)ncc3C(F)(F)F)c[nH]c2n1 [Compound 146] | < 30 nM
Cc1noc(C)c1-c1ccc2c(-c3nc(N[C@H]4CCC[C@H]4N4CC(O)C4)ncc3C(F)(F)F)c[nH]c2n1 [Compound 163] | 30 to 100 nM
COC1CN([C@H]2CCC[C@@H]2Nc2ncc(C(F)(F)F)c(-c3c[nH]c4nc(-c5c(C)noc5C)ccc34)n2)C1 [Compound 164] | < 30 nM
COC1CN([C@@H]2CCC[C@@H]2Nc2ncc(C(F)(F)F)c(-c3c[nH]c4nc(-c5c(C)noc5C)ccc34)n2)C1 [Compound 165] | 30 to 100 nM
Cc1noc(C)c1-c1ccc2c(-c3nc(N[C@H]4CCC[C@@H]4N4CC(O)C4)ncc3C(F)(F)F)c[nH]c2n1 [Compound 159] | < 30 nM
Cc1noc(C)c1-c1ccc2c(-c3nc(N[C@H]4CCC[C@@H]4NCC(F)F)ncc3C(F)(F)F)c[nH]c2n1 [Compound 147] | < 30 nM

Lab note: next molecule to report on.
Using the record for N[C@H]1CCC[C@@H]1Nc1ncc(C(F)(F)F)c(-c2c[nH]c3cc(-c4nccs4)ccc23)n1 [Compound 117] , state its measured IC50. < 30 nM

* * *

- Tested on: MB453 cells
- experiment: Inhibition of cell proliferation, CyQUANT Direct, MB453
- Assay type: cell-based, human
- stated.conditions: Homo sapiens; MB453 triple negative breast cancer cells, 72-hour; read-out: MB 453 proliferation calculated IC50
pIC50: −log10 of the molar value.
result.type: pIC50

Examples with their reported pIC50 follow.
CC(=O)N[C@H]1CC[C@@H]1Nc1ncc(C(F)(F)F)c(-c2c[nH]c3cc(C#N)ccc23)n1 | 5.70 to 6.30
Cc1noc(C)c1-c1ccc2c(-c3nc(N[C@H]4CCC[C@@H]4N4CC[C@H](F)C4)ncc3C(F)(F)F)c[nH]c2n1 | < 5.70

Using the record for CCO[C@@H]1CNC[C@H]1Nc1ncc(C(F)(F)F)c(-c2c[nH]c3cc(C#N)ccc23)n1 (relative stereo) , state its measured pIC50. < 5.70

Using the record for `CN(C)[C@H]1CCC[C@@H]1Nc1ncc(C(F)(F)F)c(-c2c[nH]c3cc(C#N)ccc23)n1` , state its measured pIC50. 5.70 to 6.30

Using the record for `COCCN[C@H]1CCC[C@@H]1Nc1ncc(C(F)(F)F)c(-c2c[nH]c3cc(C#N)ccc23)n1` , state its measured pIC50. 6.30 to 7.00

Using the record for `CP(C)(=O)c1c(C#N)ccc2c(-c3nc(N[C@H]4CCC[C@@H]4N)ncc3C(F)(F)F)c[nH]c12` , state its measured pIC50. > 7.00

Using the record for `COC1CN([C@H]2CCC[C@@H]2Nc2ncc(C(F)(F)F)c(-c3c[nH]c4nc(-c5c(C)noc5C)ccc34)n2)C1` , state its measured pIC50. 6.30 to 7.00

Source listed as patent US11918592B2.
